target: PI3Kδ (Homo sapiens, UniProt O00329); construct: purchased Reaction Biology Corporation; experiment: PI3Kδ kinase assay (HTRF, PIP3 detection); type: biochemical; conditions: 0.1 μM compound, 10 μM ATP
Sequence (O00329 whole entry): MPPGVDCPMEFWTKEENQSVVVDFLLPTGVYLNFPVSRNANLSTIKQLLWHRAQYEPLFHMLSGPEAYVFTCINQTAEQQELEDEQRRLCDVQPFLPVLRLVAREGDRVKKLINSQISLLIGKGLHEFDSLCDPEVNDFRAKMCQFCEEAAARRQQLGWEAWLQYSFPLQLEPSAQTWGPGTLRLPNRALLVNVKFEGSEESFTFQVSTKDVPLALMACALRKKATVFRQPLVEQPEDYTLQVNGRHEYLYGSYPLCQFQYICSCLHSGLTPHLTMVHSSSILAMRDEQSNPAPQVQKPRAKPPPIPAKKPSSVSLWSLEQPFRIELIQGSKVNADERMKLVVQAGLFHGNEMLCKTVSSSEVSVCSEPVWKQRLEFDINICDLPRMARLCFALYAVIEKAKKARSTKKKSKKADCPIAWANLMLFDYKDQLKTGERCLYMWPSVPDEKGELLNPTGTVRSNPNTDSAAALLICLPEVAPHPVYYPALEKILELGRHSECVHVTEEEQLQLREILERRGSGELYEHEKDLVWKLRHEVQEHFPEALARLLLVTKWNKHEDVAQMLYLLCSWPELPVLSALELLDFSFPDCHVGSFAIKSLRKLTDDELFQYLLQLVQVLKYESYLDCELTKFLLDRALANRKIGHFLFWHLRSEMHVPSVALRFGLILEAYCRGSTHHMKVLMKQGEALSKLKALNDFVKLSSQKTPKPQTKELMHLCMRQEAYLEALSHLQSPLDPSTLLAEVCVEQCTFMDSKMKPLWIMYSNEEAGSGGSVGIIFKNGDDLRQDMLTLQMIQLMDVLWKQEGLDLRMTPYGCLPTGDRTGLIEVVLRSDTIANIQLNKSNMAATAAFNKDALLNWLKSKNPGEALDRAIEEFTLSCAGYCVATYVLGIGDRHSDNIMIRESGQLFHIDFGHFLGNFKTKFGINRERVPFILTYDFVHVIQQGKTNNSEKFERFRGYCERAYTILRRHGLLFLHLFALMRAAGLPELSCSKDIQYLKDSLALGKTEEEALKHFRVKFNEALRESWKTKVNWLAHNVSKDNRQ
Sequence (P27986 whole entry partner): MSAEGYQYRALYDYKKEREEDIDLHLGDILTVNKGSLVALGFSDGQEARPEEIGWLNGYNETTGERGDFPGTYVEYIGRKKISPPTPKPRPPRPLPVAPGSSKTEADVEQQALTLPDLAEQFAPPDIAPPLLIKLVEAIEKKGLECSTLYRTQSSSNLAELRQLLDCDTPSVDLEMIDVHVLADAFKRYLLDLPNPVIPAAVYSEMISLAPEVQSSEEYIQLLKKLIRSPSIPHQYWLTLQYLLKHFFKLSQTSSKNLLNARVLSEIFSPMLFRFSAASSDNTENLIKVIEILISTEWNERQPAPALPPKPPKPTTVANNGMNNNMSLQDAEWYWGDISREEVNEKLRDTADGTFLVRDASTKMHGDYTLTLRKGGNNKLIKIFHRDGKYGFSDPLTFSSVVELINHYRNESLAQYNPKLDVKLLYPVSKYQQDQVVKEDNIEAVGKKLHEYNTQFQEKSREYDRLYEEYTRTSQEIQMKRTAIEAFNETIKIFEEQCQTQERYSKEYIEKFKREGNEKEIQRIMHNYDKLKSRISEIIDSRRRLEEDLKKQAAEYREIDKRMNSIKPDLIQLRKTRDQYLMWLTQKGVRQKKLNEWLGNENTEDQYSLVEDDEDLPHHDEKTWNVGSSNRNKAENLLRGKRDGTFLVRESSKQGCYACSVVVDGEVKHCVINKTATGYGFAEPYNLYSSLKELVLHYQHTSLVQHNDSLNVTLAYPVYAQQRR
measure-name: PI3Kδ @ 0.1 μM (% Inh)

compound="C=CC(=O)N1CC(n2nc(-c3cc(O)cc(F)c3)c3c(N)ncnc32)Cc2cc(C)ccc21 (centres unmarked) [compound 31]" measure_name="PI3Kδ @ 0.1 μM (% Inh)" measured_result=44.38

1: N#Cc1ccc(-c2nn(C3Cc4ccccc4C3)c3ncnc(N)c23)cc1O [Compound No. 94]
2: COc1cc(-c2nn(C3Cc4ccccc4C3)c3ncnc(N)c23)cc(C(F)(F)F)c1F [Compound No. 92]
### Prompt Select the item with the higher value of PI3Kδ @ 0.1 μM (% Inh) from the options 1 and 2 listed. Respond with the label that goes with your answer.
### Response 1
(1: 71.5 % Inh, 2: 9.31 % Inh)

* * *

What follows is a record of IC50 for PI3Kδ (Homo sapiens, UniProt O00329).
measure-name: IC50 (nM)

Below: 3 compounds and their reported IC50.
compound="COc1ccc(-c2nn(C3CCc4ccccc4C3)c3ncnc(N)c23)cn1 (racemic)" measured_result=67
compound="Nc1ncnc2c1c(-c1ccc(Br)c(O)c1)nn2C1CCc2ccccc21 (centres unmarked) [36b]" measured_result=155
compound="Nc1ncnc2c1c(-c1ccc3cc[nH]c3c1)nn2C1CCc2ccccc2C1 (racemic)" measured_result=108

A: Nc1ncnc2c1c(-c1ccc(O)c(F)c1)nn2C1CCc2ccccc2C1 (centres unmarked)
B: Nc1ncnc2c1c(-c1ccc(F)c(O)c1)nn2C1Cc2ccccc2C1
C: Nc1ncnc2c1c(-c1ccc(Br)c(O)c1)nn2C1CCc2ccccc21 (single isomer, unassigned) [36a]
D: COc1cc(-c2nn(C3Cc4ccccc4C3)c3ncnc(N)c23)ccc1C(F)(F)F
### Prompt Falling order of IC50, please. Form entry: labels listed in requested order.
### Response D, B, A, C

* * *

biological target: PI3Kδ (Homo sapiens, UniProt O00329); construct: purchased Reaction Biology Corporation; assay: PI3Kδ kinase assay (HTRF, PIP3 detection); type: biochemical; details: 0.1 μM compound, 10 μM ATP
measure-name: PI3Kδ @ 0.1 μM (% Inh)

compound=COc1cc(-c2nn(C3Cc4ccccc4C3)c3ncnc(N)c23)cc(Cl)c1OC target_desc="PI3Kδ (Homo sapiens, UniProt O00329)" measure_name="PI3Kδ @ 0.1 μM (% Inh)" units_of_measure="% Inh" measured_result=5.1
compound=Nc1ncnc2c1c(-c1cc(F)c3c(c1)NC(=O)CO3)nn2C1Cc2ccccc2C1 target_desc="PI3Kδ (Homo sapiens, UniProt O00329)" measure_name="PI3Kδ @ 0.1 μM (% Inh)" units_of_measure="% Inh" measured_result=19.42
compound=Nc1ncnc2c1c(-c1ccccc1CO)nn2C1Cc2ccccc2C1 target_desc="PI3Kδ (Homo sapiens, UniProt O00329)" measure_name="PI3Kδ @ 0.1 μM (% Inh)" units_of_measure="% Inh" measured_result=30.15
compound=Nc1cc(-c2nn(C3Cc4ccccc4C3)c3ncnc(N)c23)cnc1Cl target_desc="PI3Kδ (Homo sapiens, UniProt O00329)" measure_name="PI3Kδ @ 0.1 μM (% Inh)" units_of_measure="% Inh" measured_result=38.16

P: N#Cc1cc(-c2nn(C3Cc4ccccc4C3)c3ncnc(N)c23)ccc1F
Q: Nc1cccc(-c2nn(C3Cc4ccccc4C3)c3ncnc(N)c23)c1
R: Nc1ncnc2c1c(-c1ccc(F)c(O)c1)nn2C1CCCc2ccccc21 (centres unmarked)
S: COc1ccc(-c2nn(C3CCc4ccccc43)c3ncnc(N)c23)cc1OC (centres unmarked)
### Prompt // ranking: key=PI3Kδ @ 0.1 μM (% Inh), reverse=True // respond by listing labels in the order requested
### Response S, P, Q, R

* * *

target: PI3Kδ (Homo sapiens, UniProt O00329); construct: purchased Reaction Biology Corporation; test: PI3Kδ kinase assay (HTRF, PIP3 detection); format: biochemical; settings: 0.1 μM compound, 10 μM ATP
measure-name: PI3Kδ @ 0.1 μM (% Inh)

I: NC(=O)c1cc(-c2nn(C3Cc4ccccc4C3)c3ncnc(N)c23)cc(O)c1F
II: C=CC(=O)N1CC(n2nc(-c3cnc(OC)c(F)c3)c3c(N)ncnc32)Cc2cc(C)ccc21 (stereo not shown)
III: Nc1ccc2c(c1)CC(n1nc(-c3cc(O)c(F)c(F)c3)c3c(N)ncnc31)C2 (stereo not shown)
IV: Nc1ncnc2c1c(-c1ccc3cc[nH]c3c1)nn2C1CCc2ccccc2C1 (racemic)
### Prompt Reorder: PI3Kδ @ 0.1 μM (% Inh), max to min. To answer, arrange all of the labels according to the requested order.
### Response III, I, IV, II

* * *

Entries with reported IC50 on BTK (Homo sapiens)
Sequence (Q06187 whole entry): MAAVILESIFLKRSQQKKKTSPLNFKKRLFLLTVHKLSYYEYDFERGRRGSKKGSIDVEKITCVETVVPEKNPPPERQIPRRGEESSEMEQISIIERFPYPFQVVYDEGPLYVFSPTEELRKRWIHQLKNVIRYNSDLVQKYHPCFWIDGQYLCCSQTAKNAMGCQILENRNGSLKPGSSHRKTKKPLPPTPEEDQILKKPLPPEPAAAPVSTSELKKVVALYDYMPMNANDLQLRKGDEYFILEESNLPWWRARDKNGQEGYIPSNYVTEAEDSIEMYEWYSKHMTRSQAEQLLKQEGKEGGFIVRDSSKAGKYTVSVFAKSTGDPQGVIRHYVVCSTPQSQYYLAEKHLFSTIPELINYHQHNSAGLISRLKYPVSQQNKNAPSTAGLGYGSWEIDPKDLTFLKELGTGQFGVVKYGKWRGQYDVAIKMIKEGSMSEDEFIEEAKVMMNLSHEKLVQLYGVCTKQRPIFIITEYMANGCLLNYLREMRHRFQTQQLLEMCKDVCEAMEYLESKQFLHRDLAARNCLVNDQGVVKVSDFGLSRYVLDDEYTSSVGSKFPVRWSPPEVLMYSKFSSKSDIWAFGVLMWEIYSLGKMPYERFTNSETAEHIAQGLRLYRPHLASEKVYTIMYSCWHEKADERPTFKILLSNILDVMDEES
measure-name: IC50 (nM)

Guide cases for IC50, answers given:
compound="COc1ccc(-c2nn(C3CCc4ccccc4C3)c3ncnc(N)c23)cc1F (single isomer, unassigned) [Compound No. 14a]" target_desc="BTK (Homo sapiens)" units_of_measure=nM measured_result=784
compound="Nc1ncnc2c1c(-c1ccc(F)c(O)c1)nn2C1CCc2ccccc2C1 (single isomer, unassigned) [Compound No. 26b]" target_desc="BTK (Homo sapiens)" units_of_measure=nM measured_result=20.9
compound="Nc1ncnc2c1c(-c1cc(O)c(F)c(Cl)c1)cn2C1Cc2ccccc2C1 [compound 110]" target_desc="BTK (Homo sapiens)" units_of_measure=nM measured_result=2.5
compound="Nc1ncnc2c1c(-c1cc(O)c(F)c(F)c1)nn2C1Cc2ccccc2C1 [Compound No. 81]" target_desc="BTK (Homo sapiens)" units_of_measure=nM measured_result=26.9

A: Nc1ncnc2c1c(-c1ccc(CO)cc1)nn2C1Cc2ccccc2C1 [Compound No. 55]
B: Nc1cc(-c2nn(C3Cc4ccccc4C3)c3ncnc(N)c23)cnc1Cl [Compound No. 104]
C: COc1cc(F)cc(-c2nn(C3CCc4ccccc43)c3ncnc(N)c23)c1 (centres unmarked) [compound 4]
### Prompt Sort by IC50, descending. Write the labels out in the order the request specifies.
### Response A, C, B

* * *

target: PI3Kδ (Homo sapiens, UniProt O00329); construct: purchased Reaction Biology Corporation; assay: PI3Kδ kinase assay (HTRF, PIP3 detection); type: biochemical; settings: 1 μM compound, 10 μM ATP
measure-name: PI3Kδ @ 1 μM (% Inh)

Answered cases to consult:
compound=Nc1ncnc2c1c(-c1ccc(CO)cc1)nn2C1Cc2ccccc2C1 measured_result=48.96
compound=Nc1ncnc2c1c(-c1ccc3c(c1)OC(F)(F)O3)nn2C1Cc2ccccc2C1 measured_result=15.57
compound=Nc1ncnc2c1c(-c1cc(O)c(F)c(C(F)(F)F)c1)nn2C1Cc2ccccc2C1 measured_result=100.0
compound=Nc1ncnc2c1c(-c1ccccc1CO)nn2C1Cc2ccccc2C1 measured_result=81.32
compound=COc1cc(-c2nn(C3Cc4ccccc4C3)c3ncnc(N)c23)ccc1N measured_result=53.69

A: Nc1ncnc2c1c(-c1ccc3[nH]cnc3c1)nn2C1Cc2ccccc2C1
B: COc1cc(F)cc(-c2cn(C3Cc4ccccc4C3)c3ncnc(N)c23)c1
### Prompt Higher PI3Kδ @ 1 μM (% Inh) between A and B ? To answer, give the label that identifies your chosen option.
### Response A
(A: 100.0 % Inh, B: 43.03 % Inh)

I: COc1ccc(-c2nn(C3Cc4ccccc4C3)c3ncnc(N)c23)cc1O
II: Nc1ncnc2c1c(CCCO)nn2C1Cc2ccccc2C1 (single isomer, unassigned)
### Prompt PI3Kδ @ 1 μM (% Inh) comparison. Which is larger, I or II ? // respond with label for picked entry
### Response I

a: Nc1ncnc2c1c(-c1cc(O)c(F)c(F)c1)nn2C1Cc2ccccc2C1
b: COc1cc(-c2nn(C3Cc4ccccc4C3)c3ncnc(N)c23)cc(C#N)c1OC
c: CCOc1cc(-c2nn(C3Cc4ccccc4C3)c3ncnc(N)c23)cc(Cl)c1OC(C)C
d: COc1cc(F)cc(-c2nn(C3Cc4ccccc4C3)c3ncnc(N)c23)c1
e: CC(=O)Nc1cccc(-c2nn(C3Cc4ccccc4C3)c3ncnc(N)c23)c1
### Prompt Could you please sort these 5 entries by PI3Kδ @ 1 μM (% Inh) from high to low? Put the labels in the order asked and list them.
### Response a, d, b, c, e

A: Nc1ncnc2c1c(-c1cc(O)cc(F)c1)nn2C1Cc2ccc(F)cc2C1 (stereo not shown)
B: Nc1ncnc2c1c(-c1ccc3c(c1)OCCCO3)nn2C1Cc2ccccc2C1
### Prompt Which numeric PI3Kδ @ 1 μM (% Inh) is bigger, that of A or that of B ? Bench note: the answer is the label of the chosen record.
### Response A
(A: 100.0 % Inh, B: 65.15 % Inh)
